Provenance of the data: patent US20120309796A1

target or test system: human CRTH2 (Homo sapiens, UniProt Q9Y5Y4)
Sequence (Q9Y5Y4 whole entry): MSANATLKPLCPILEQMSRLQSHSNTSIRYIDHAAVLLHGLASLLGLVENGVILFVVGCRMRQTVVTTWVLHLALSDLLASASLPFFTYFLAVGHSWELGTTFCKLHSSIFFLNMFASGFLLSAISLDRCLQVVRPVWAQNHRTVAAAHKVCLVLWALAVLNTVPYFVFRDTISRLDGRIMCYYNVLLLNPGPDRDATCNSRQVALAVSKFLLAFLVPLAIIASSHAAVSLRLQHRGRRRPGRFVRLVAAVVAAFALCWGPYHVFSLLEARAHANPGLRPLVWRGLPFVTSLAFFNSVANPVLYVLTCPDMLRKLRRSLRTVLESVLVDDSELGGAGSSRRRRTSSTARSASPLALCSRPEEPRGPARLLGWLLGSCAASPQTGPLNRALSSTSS
measurement protocol: Human CRTH2 Receptor Binding Assay (whole cell, [3H]ramatroban competition)
Design: two mammalian expression vectors that harbored human CRTH2 and G-alpha16 cDNAs; expressed in transfected cells
condition set: CHO-K1 cells expressing human CRTH2 and G-alpha16; 20 nM [3H]ramatroban; 1 hour, room temperature
Exercise: for every item that follows, state its recorded IC50.
Just the number in µM, nothing appended.

**Q:** Param item = COc1cc(C(F)(F)F)cc(S(=O)(=O)NC2CCCCc3c(OCC(=O)O)cccc32)c1 (centres unmarked) ; retrieve measured IC50.
**A:** 0.158

**Q:** Param item = Cc1cncc(-c2ccc(S(=O)(=O)N(C)C3CCCCc4c(OCC(=O)O)cccc43)cc2)c1 (centres unmarked) ; retrieve measured IC50.
**A:** 1.5

**Q:** Param item = Cc1cc(-c2ccc(S(=O)(=O)NC3CCCCc4c(OCC(=O)O)cccc43)nc2)cc(C(C)(C)C)c1 (centres unmarked) ; retrieve measured IC50.
**A:** 0.0179

**Q:** Param item = CN(C1CCCCc2c(OCC(=O)O)cccc21)S(=O)(=O)c1cc(Br)cc(C(F)(F)F)c1 (centres unmarked) ; retrieve measured IC50.
**A:** 0.0574

**Q:** Param item = O=C(O)COc1cccc2c1CCCCC2NS(=O)(=O)c1cc(F)cc(C(F)(F)F)c1 (centres unmarked) ; retrieve measured IC50.
**A:** 0.171

**Q:** Param item = O=C(O)COc1cccc2c1CCCCC2NS(=O)(=O)c1cc(Br)cc(C(F)(F)F)c1 (centres unmarked) ; retrieve measured IC50.
**A:** 0.047

**Q:** Param item = O=C(O)COc1cccc2c1CCCCC2NS(=O)(=O)c1ccc(-c2ccccc2)cc1 (centres unmarked) ; retrieve measured IC50.
**A:** 0.0336

**Q:** Param item = CS(=O)(=O)c1cc(S(C)(=O)=O)cc(S(=O)(=O)NC2CCCCc3c(OCC(=O)O)cccc32)c1 (centres unmarked) ; retrieve measured IC50.
**A:** 0.0503
